Each entry below carries its recorded melting point.

Solved cases below.
[[record]]
compound = "O=C(Nc1nccs1)C(CC1CCCC1)c1ccc(-c2cccnc2)cc1 (centres unmarked) [Example 8]"
observed = "48 to 52 °C"

[[record]]
compound = "O=C(Nc1ccc(CO)cn1)C(CC1CCCC1)c1ccc(-c2ccccc2)cc1 (centres unmarked) [Example 24]"
observed = "67 to 70 °C"

[[record]]
compound = "CNC(=O)NC(=O)C(CC1CCCC1)c1ccc(N2CCOCC2)cc1 (centres unmarked) [Example 39]"
observed = "206 to 207 °C"

[[record]]
compound = "O=C(Nc1nccs1)C(CC1CCCC1)c1ccc(-c2cccs2)cc1 (centres unmarked) [Example 7]"
observed = "194 °C (dec.)"

[[record]]
compound = "O=C(Nc1nccs1)C(CC1CCCC1)c1ccc(Oc2ccccc2)cc1 (centres unmarked) [Example 12]"
observed = "154.9 to 155.1 °C"


# evaluate next
If you can, please state the reported melting point value of O=C(Nc1nccs1)C(CC1CCCC1)c1ccc(N2CCOCC2)cc1 (centres unmarked) [Example 18] .
244 to 246 °C

---

metric name: melting point

[[record]]
compound = "O=C(Nc1nccs1)C(CC1CCCC1)c1ccc(OCc2ccccc2)cc1 (centres unmarked)"
observed = "48 to 50 °C"

[[record]]
compound = "COC(=O)c1csc(NC(=O)C(CC2CCCC2)c2ccc(-c3ccccc3)cc2)n1 (centres unmarked)"
observed = "98 to 101 °C"

[[record]]
compound = "O=C(Nc1ccccn1)C(CC1CCCC1)c1ccc(-c2cccnc2)cc1 (centres unmarked)"
observed = "139 to 140 °C"

[[record]]
compound = "O=C(Nc1nccs1)[C@H](CC1CCCC1)c1ccc(-c2ccccc2)cc1"
observed = "132 to 134 °C"


What melting point value was documented for this compound, O=C(Nc1nc(CO)cs1)C(CC1CCCC1)c1ccc(-c2ccccc2)cc1 (centres unmarked) ?
102 to 104 °C

# input compound: O=C(Nc1nccs1)C(CC1CCCC1)c1ccc(-c2ccc3[nH]ccc3c2)cc1 (centres unmarked) ; wanted: its melting point
112 to 115 °C

---

Listed below: melting point values for each entry.

Some solved entries appear below for comparison.
[[record]]
compound = "O=C(Nc1nc(CCO)cs1)C(CC1CCCC1)c1ccc(-c2cccc3ccccc23)cc1 (centres unmarked)"
observed = "84 to 87 °C"

[[record]]
compound = "O=C(O)c1ccc(NC(=O)C(CC2CCCC2)c2ccc(-c3cccc4ccccc34)cc2)nc1 (centres unmarked)"
observed = "155 to 158 °C"

[[record]]
compound = "CNC(=O)NC(=O)C(CC1CCCC1)c1ccc(-c2ccc3[nH]ccc3c2)cc1 (centres unmarked)"
observed = "91 to 95 °C"

[[record]]
compound = "O=C(Nc1nccs1)C(CC1CCCC1)c1ccc(-c2ccncc2)cc1 (centres unmarked)"
observed = "213 to 215 °C"


Please give the measured melting point for this compound: COC(=O)c1ccc(NC(=O)C(CC2CCCC2)c2ccc(-c3ccccc3)cc2)nc1 (centres unmarked)
63 to 65 °C

Request the reported melting point associated with O=C(Nc1nccs1)C(CC1CCCC1)c1ccc(S(=O)(=O)c2ncc[nH]2)cc1 (centres unmarked)
249 to 251 °C

Need melting point, item CNC(=O)NC(=O)C(CC1CCCC1)c1ccc(-c2cccc3ccccc23)cc1 (centres unmarked)
85 to 88 °C

Look at this compound and give its reported melting point. O=C(Nc1nccs1)C(CC1CCCC1)c1ccc(-c2ccccc2)cc1 (centres unmarked)
194 to 195 °C

Value lookup for melting point; key = O=C(Nc1nccs1)C(CC1CCCC1)c1ccc(-c2cccc3ccccc23)cc1 (centres unmarked)
202 to 204 °C

---

Catalogue of compounds with associated melting point

[[record]]
compound = "CNC(=O)NC(=O)C(CC1CCCC1)c1ccc(-c2cccnc2)cc1 (centres unmarked) [Example 36]"
metric_name = "melting point"
observed = "158 to 160 °C"


Query (compound): O=C(Nc1ccccn1)C(CC1CCCC1)c1ccc(-c2cccc3ccccc23)cc1 (centres unmarked) [Example 25] ; field requested: melting point
73 to 77 °C

State the recorded melting point for this entry: O=C(Nc1nccs1)C(CC1CCCC1)c1ccc(S(=O)(=O)C2CCCC2)cc1 (centres unmarked) [Example 19]
180 to 182 °C

Dear colleague, I am looking for the recorded melting point of the following compound: O=C(Nc1ccccn1)C(CC1CCCC1)c1ccc(-c2ccccc2)cc1 (centres unmarked) [Example 21]
57 to 59 °C

Query: melting point; subject: O=C(Nc1nc(CO)cs1)C(CC1CCCC1)c1ccc(Oc2ccccc2)cc1 (centres unmarked) [Example 13]
83.7 to 87 °C

Recorded melting point for O=C(Nc1ccc(CO)cn1)C(CC1CCCC1)c1ccc(-c2cccc3ccccc23)cc1 (centres unmarked) [Example 27] , please?
72 to 75 °C

Requested field: melting point. Item: O=C(O)c1ccc(NC(=O)C(CC2CCCC2)c2ccc(-c3ccccc3)cc2)nc1 (centres unmarked) [Example 23]
271 to 272 °C (dec.)

Field request: melting point | item: O=C(Nc1ccccn1)C(CC1CCCC1)c1ccc(-c2ccncc2)cc1 (centres unmarked) [Example 29]
165 to 167 °C

# lookup: melting point of CNC(=O)NC(=O)C(CC1CCCC1)c1ccc(S(=O)(=O)C2CCCCC2)cc1 (centres unmarked) [Example 40]
244 to 246 °C

Give its melting point value. Item: NC(=O)NC(=O)C(CC1CCCC1)c1ccc(-c2ccccc2)cc1 (centres unmarked) [Example 33]
184 to 185 °C

What does the data say about its melting point? Entry: CNC(=O)NC(=O)C(CC1CCCC1)c1ccc(-c2ccccc2)cc1 (centres unmarked) [Example 34]
195 to 197 °C

// data source = patent US6384220B2
